Sourced from the supplement of paper PMC5998384

System: HeLa Kyoto
assayMethodText: solubility in G1/S (NP-40 vs SDS abundance) (log2 ratio); higher = more soluble
conditionSummary: cell cycle stage: G1/S
measuredParameter: solubility in G1/S (log2)

Known results for sequences:
entrySequence	solubility in G1/S (log2)
MAVKKIAIFGATGQTGLTTLAQAVQAGYEVTVLVRDSSRLPSEGPRPAHVVVGDVLQAADVDKTVAGQDAVIVLLGTRNDLSPTTVMSEGARNIVAAMKAHGVDKVVACTSAFLLWDPTKVPPRLQAVTDDHIRMHKVLRESGLKYVAVMPPHIGDQPLTGAYTVTLDGRGPSRVISKHDLGHFMLRCLTTDEYDGHSTYPSHQYQ [BLVRB]	0.417
MAAAAMAAAAGGGAGAARSLSRFRGCLAGALLGDCVGSFYEAHDTVDLTSVLRHVQSLEPDPGTPGSERTEALYYTDDTAMARALVQSLLAKEAFDEVDMAHRFAQEYKKDPDRGYGAGVVTVFKKLLNPKCRDVFEPARAQFNGKGSYGNGGAMRVAGISLAYSSVQDVQKFARLSAQLTHASSLGYNGAILQALAVHLALQGESSSEHFLKQLLGHMEDLEGDAQSVLDARELGMEERPYSSRLKKIGELLDQASVTREEVVSELGNGIAAFESVPTAIYCFLRCMEPDPEIPSAFNSLQRTLIYSISLGGDTDTIATMAGAIAGAYYGMDQVPESWQQSCEGYEETDILAQSLHRVFQKS [ADPRHL2]	0.408

Kindly review the next sequence as well.
Specify reported solubility in G1/S (log2) for the sequence shown: MPAHLLQDDISSSYTTTTTITAPPSRVLQNGGDKLETMPLYLEDDIRPDIKDDIYDPTYKDKEGPSPKVEYVWRNIILMSLLHLGALYGITLIPTCKFYTWLWGVFYYFVSALGITAGAHRLWSHRSYKARLPLRLFLIIANTMAFQNDVYEWARDHRAHHKFSETHADPHNSRRGFFFSHVGWLLVRKHPAVKEKGSTLDLSDLEAEKLVMFQRRYYKPGLLMMCFILPTLVPWYFWGETFQNSVFVATFLRYAVVLNATWLVNSAAHLFGYRPYDKNISPRENILVSLGAVGEGFHNYHHSFPYDYSASEYRWHINFTTFFIDCMAALGLAYDRKKVSKAAILARIKRTGDGNYKSG [SCD]
-0.126

* * *

Tested on: HeLa Kyoto
assayMethodText: melting temperature (median over replicates), in situ; higher = more thermally stable
conditionSummary: cell cycle stage: mitosis
measuredParameter: melting temperature (°C)
Hi! Could you send only the number? It should be in °C, unit omitted.

Known results for sequences:
entrySequence	melting temperature [°C]
MTSRSTARPNGQPQASKICQFKLVLLGESAVGKSSLVLRFVKGQFHEYQESTIGAAFLTQSVCLDDTTVKFEIWDTAGQERYHSLAPMYYRGAQAAIVVYDITNQETFARAKTWVKELQRQASPSIVIALAGNKADLANKRMVEYEEAQAYADDNSLLFMETSAKTAMNVNDLFLAIAKKLPKSEPQNLGGAAGRSRGVDLHEQSQQNKSQCCSN [RAB5B]	58.2
MSAPFEERSGVVPCGTPWGQWYQTLEEVFIEVQVPPGTRAQDIQCGLQSRHVALSVGGREILKGKLFDSTIADEGTWTLEDRKMVRIVLTKTKRDAANCWTSLLESEYAADPWVQDQMQRKLTLERFQKENPGFDFSGAEISGNYTKGGPDFSNLEK [NUDCD2]	49.5

Specify reported melting temperature for the sequence shown: MSDEGSRGSRLPLALPPASQGCSSGGGGGGSSAGGSGNSRPPRNLQGLLQMAITAGSEEPDPPPEPMSEERRQWLQEAMSAAFRGQREEVEQMKSCLRVLSQPMPPTAGEAEQAADQQEREGALELLADLCENMDNAADFCQLSGMHLLVGRYLEAGAAGLRWRAAQLIGTCSQNVAAIQEQVLGLGALRKLLRLLDRDACDTVRVKALFAISCLVREQEAGLLQFLRLDGFSVLMRAMQQQVQKLKVKSAFLLQNLLVGHPEHKGTLCSMGMVQQLVALVRTEHSPFHEHVLGALCSLVTDFPQGVRECREPELGLEELLRHRCQLLQQHEEYQEELEFCEKLLQTCFSSPADDSMDR [HSPBP1]
51.2
